Target: T1, Murine Gαq (amino acids 7-359), biotinylated (mouse, UniProt P21279 7-359, biotinylated with biotinamidohexanoic acid N-hydroxysuccinimide)
T1 sequence (looked up): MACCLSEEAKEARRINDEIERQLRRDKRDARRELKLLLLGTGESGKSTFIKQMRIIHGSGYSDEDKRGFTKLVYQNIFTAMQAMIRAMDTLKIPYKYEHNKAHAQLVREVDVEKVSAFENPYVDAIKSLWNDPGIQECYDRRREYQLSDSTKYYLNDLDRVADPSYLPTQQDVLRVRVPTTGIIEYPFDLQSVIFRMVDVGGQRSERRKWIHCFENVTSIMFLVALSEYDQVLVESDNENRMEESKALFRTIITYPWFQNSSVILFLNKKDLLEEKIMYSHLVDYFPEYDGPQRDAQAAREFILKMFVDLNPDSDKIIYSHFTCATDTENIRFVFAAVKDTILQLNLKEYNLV
Test: bead-based flow cytometry competition assay
// values below are reported pIC50
Note on units: pIC50 is unitless, being -log10 of a concentration expressed in mol/L.

# annotated cases, reported pIC50 shown
>>> numeric_readout("RGS2 RH domain (residues 72-203) N183F (domain or fragment, human) GEFGSPSPEEAQLWSEAFDELLASKYGLAAFRAFLKSEFCEENIEFWLACEDFKKTKSPQKLSSKARKIYTDFIEKEAPKEINIDFQTKTLIAQNIQEATSGCFTTAQKRVYSLMEFNSYPRFLESEFYQDLCKKPQ")
6.77
>>> numeric_readout("RGS2 RH domain (residues 72-203) S179D (domain or fragment, human) GEFGSPSPEEAQLWSEAFDELLASKYGLAAFRAFLKSEFCEENIEFWLACEDFKKTKSPQKLSSKARKIYTDFIEKEAPKEINIDFQTKTLIAQNIQEATSGCFTTAQKRVYDLMENNSYPRFLESEFYQDLCKKPQ")
4.80
>>> numeric_readout("RGS2 RH domain (residues 72-203) N183K (domain or fragment, human) GEFGSPSPEEAQLWSEAFDELLASKYGLAAFRAFLKSEFCEENIEFWLACEDFKKTKSPQKLSSKARKIYTDFIEKEAPKEINIDFQTKTLIAQNIQEATSGCFTTAQKRVYSLMEKNSYPRFLESEFYQDLCKKPQ")
5.15

We now examine a further binder.
The binder identified as RGS2 RH domain (residues 72-203) S179K (domain or fragment, human) GEFGSPSPEEAQLWSEAFDELLASKYGLAAFRAFLKSEFCEENIEFWLACEDFKKTKSPQKLSSKARKIYTDFIEKEAPKEINIDFQTKTLIAQNIQEATSGCFTTAQKRVYKLMENNSYPRFLESEFYQDLCKKPQ registered its pIC50 at 5.47

Recorded values, source paper PMC3638996.
